Task for the reader: assign each of the following compounds its reported log10 of MIC.
Heads up: the numbers are on a log10 scale; they represent MIC in µg/mL.

Data request: Form entry - test system: Escherichia coli K12 BW25113; read-out: log10 of MIC; compound: O=C(N[C@H](CO)[C@H](O)c1ccc([N+](=O)[O-])cc1)C(Cl)Cl [CAP, chloramphenicol]
Data returned: 0.83

Data request: Enter reported log10 of MIC observed with Escherichia coli K12 BW25113 for [H]/N=C(/N)N[C@H]1[C@H](O)[C@@H](O)[C@H](O[C@@H]2O[C@@H](C)[C@](O)(C=O)[C@H]2O[C@@H]2O[C@@H](CO)[C@H](O)[C@@H](O)[C@@H]2NC)[C@@H](N/C(N)=N\[H])[C@@H]1O [SM, streptomycin]
Data returned: 0.80

Data request: log10 of MIC of NC[C@H]1O[C@H](O[C@H]2[C@H](O)[C@@H](O[C@H]3O[C@H](CO)[C@@H](O)[C@H](N)[C@H]3O)[C@H](N)C[C@@H]2N)[C@H](O)[C@@H](O)[C@@H]1O [KAN, kanamycin] on Escherichia coli K12 BW25113?
Data returned: 0.80

Data request: Given the entry CNC1CCCN(c2c(F)cc3c(=O)c(C(=O)O)cn(C4CC4)c3c2OC)C1 (stereo not drawn) [BLFX, balofloxacin] , what log10 of MIC was observed with Escherichia coli K12 BW25113?
Data returned: -0.60

Data request: Could you share what log10 of MIC was measured for CCn1cc(C(=O)O)c(=O)c2ccc(C)nc21 [NA, nalidixic acid] , tested on Escherichia coli K12 BW25113?
Data returned: 0.70

Data request: Look up log10 of MIC with Escherichia coli K12 BW25113 for this compound: CC[C@H]1OC(=O)[C@H](C)[C@@H](O[C@H]2C[C@@](C)(OC)[C@@H](O)[C@H](C)O2)[C@H](C)[C@@H](O[C@@H]2O[C@H](C)C[C@H](N(C)C)[C@H]2O)[C@](C)(O)C[C@@H](C)C(=O)[C@H](C)[C@@H](O)[C@]1(C)O [ER, erythromycin]
Data returned: 1.70

Data request: Test system Escherichia coli K12 BW25113; read-out log10 of MIC; what value for CC1(C)S[C@@H]2[C@H](NC(=O)[C@H](N)c3ccccc3)C(=O)N2[C@H]1C(=O)O [ampicillin] ?
Data returned: 0.80

Data request: # value lookup — system Escherichia coli K12 BW25113, readout log10 of MIC, item CC(C)(O/N=C(\C(=O)N[C@@H]1C(=O)N2C(C(=O)[O-])=C(C[n+]3ccccc3)CS[C@H]12)c1csc(N)n1)C(=O)O [CAZ, ceftazidime]
Data returned: -0.90

Data request: Give log10 of MIC (Escherichia coli K12 BW25113) of the following compound: CN(C)[C@@H]1C(O)=C(C(N)=O)C(=O)[C@@]2(O)C(O)=C3C(=O)c4c(O)cccc4[C@@](C)(O)[C@H]3C[C@@H]12 [TET, tetracycline]
Data returned: 0.49
